This collection of values is drawn from paper PMC5540273.

- Tested on: SgK110
- experimentalParameters: concentration: 1 μM, replicates: in singlicate; n = 1;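 note: KINOMEscan kinase panel screen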
Kindly supply the reported %Inh values for the records listed here.
One number for each entry, in %.

I have 4 molecules here; please give me %Inh for each one.
1. C[C@@H](Oc1cc(-n2cnc3cc(-c4ccnc(NCCS(C)(=O)=O)c4)ccc32)sc1C(N)=O)c1ccccc1Cl [GSK907232]
2. Fc1ccc(-c2ncn(C3CCNCC3)c2-c2ccnc(Oc3ccc(-c4ccccc4)cc3)n2)cc1 [SB-245391]
3. c1ccc(-c2cnc3nccnn23)cc1 [AH20685]
4. O=C(O)C(F)(F)F.O=C(O)C(F)(F)F.O=c1[nH]ccc2nc(N[C@@H]3CCCNC3)nc(Nc3ccc(S(=O)(=O)N4CCOCC4)cc3)c12 [GSK2177277]

1: 0; 2: 0; 3: 0; 4: 95

====

- Tested on: PRKCI
- experimentalParameters: concentration: 1 μM, replicates: in singlicate; n = 1
measureName: %Inh (%)
Answers are plain numbers, in %.

Observe how each entry below is paired with its result.
COc1cccc(NC(=O)NC2CCN(c3ccnc(Nc4cc(OC)c(OC)c(OC)c4)n3)C2)c1 (stereo not drawn) [GSK1379763] : 0
Nc1ncc(-c2ccc3nccc(-c4ccncc4)c3c2)cc1S(=O)(=O)N1CCOCC1 [GSK1627798] : 9

Below is a list of compounds. For each, state its recorded %Inh.
1. O=C(Nc1n[nH]c2nc(-c3ccc(O)cc3)ccc12)C1CC1 [SB-710363]
2. Cc1ccc(C(=O)Nc2ccc(Nc3ccnc4cc(-c5nccs5)ccc34)cc2O)cc1.Cl [GW494702]

1: 0; 2: 2

Would you mind listing %Inh for each of the following compounds?
1. O=c1[nH]cc(-c2ccc(N3CCOCC3)cc2)c2sc(-c3cn[nH]c3)cc12 [GSK2276055]
2. CNC(=O)c1ccccc1Nc1nc(Nc2ccc(N3CCOCC3)cc2)ncc1Cl.Cl [GSK1576028]

[17, 11]

====

- Test system: STK16
- experimentalParameters: concentration: 1 μM, replicates: in singlicate; n = 1
For each record, write down the corresponding %Inh.
One number for each entry, in %.

Check out these entries, answers already filled in.
Cl.NC(=O)c1cccc(Nc2nccc(Nc3ccc(Oc4c(Cl)cccc4Cl)c(Cl)c3)n2)c1 [GW659009] : 35
Cl.Cl.NCC(NC(=O)c1cc(-c2ccccc2)c(-c2ccnc3[nH]ccc23)s1)c1ccccc1 (stereo not shown) [GSK1321561] : 3
Cl.Cl.NCC(C(=O)Nc1cc(Br)c(-c2ccnc3[nH]ccc23)s1)c1ccccc1 (stereo not shown) [GSK1269851] : 13
Cc1ccc(S(=O)(=O)Nc2ccc(Nc3nccc(Nc4cccc5[nH]ncc45)n3)cc2)cc1 [GSK581271] : 43
CN(c1ccc(NC(=O)Nc2cc(C(F)(F)F)ccc2F)cc1)c1ccnc(Nc2ccc(S(N)(=O)=O)cc2)n1 [GW809893] : 12

Give one value of %Inh per listed compound.
1. CC(C)(C)c1ccc2nccc(Nc3cccc(O)c3)c2c1 [GW856795]
2. Cc1ccc(F)c(C(=O)Nc2cccc(-c3nn4ccccc4c3-c3ccnc(Nc4cccc(F)c4)n3)c2)c1F [GSK361061]
3. COc1cc(Nc2nccc(-c3c(-c4cccc(NC(=O)c5c(F)cccc5F)c4)nn4ncccc34)n2)cc(OC)c1OC [GSK327238]
4. Cc1cccc(NC(=O)Nc2ccc(Oc3ncnc4ccn(C)c34)cc2)c1
5. CCS(=O)(=O)c1ccc(OC)c(Nc2nccc(-c3c(-c4cccc(NC(=O)c5c(F)cccc5F)c4)nn4ncccc34)n2)c1 [GSK326180]
6. COc1ccc(Nc2nccc(NCCNC(=O)c3cc4ccccc4s3)n2)cc1 [GSK1379896]
7. Cc1ccc(C(=O)Nc2ccc(Nc3ccnc4cc(-c5nccs5)ccc34)cc2O)cc1.Cl [GW494702]

1. 0
2. 5
3. 67
4. 0
5. 25
6. 13
7. 0
